The following sequences are listed with their measured self-splicing fitness (ln) values.
ASSAY SUMMARY: self-splicing fitness, log relative to wild type (ln ratio); higher = more splicing; Tetrahymena group I intron in knt gene, E. coli kanamycin selection, DiMSum; sequences stand for … in CUCUCU…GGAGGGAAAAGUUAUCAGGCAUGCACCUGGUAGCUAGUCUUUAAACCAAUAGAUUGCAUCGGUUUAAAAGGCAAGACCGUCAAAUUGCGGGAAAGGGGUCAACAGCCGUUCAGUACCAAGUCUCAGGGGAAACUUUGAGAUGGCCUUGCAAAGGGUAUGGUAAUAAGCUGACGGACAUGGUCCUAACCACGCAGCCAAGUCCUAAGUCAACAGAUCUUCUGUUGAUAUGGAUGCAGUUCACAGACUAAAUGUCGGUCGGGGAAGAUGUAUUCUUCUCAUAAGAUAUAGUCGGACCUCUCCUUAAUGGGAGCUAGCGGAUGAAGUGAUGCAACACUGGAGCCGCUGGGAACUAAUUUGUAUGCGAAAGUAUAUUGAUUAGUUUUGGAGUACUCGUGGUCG;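 further: selection with 25 µg/mL kanamycin versus none on LB agar overnight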
CONDITIONS USED: 30 °C
REPORTED PROPERTY: self-splicing fitness (ln)

[
  {
    "SEQ TEXT": "UACCAGCAAUAUUACGCCAC",
    "REPORTED PROPERTY": "self-splicing fitness (ln)",
    "REPORTED": -3.59
  },
  {
    "SEQ TEXT": "AUCUAGCAAUAUUACGGUGU",
    "REPORTED PROPERTY": "self-splicing fitness (ln)",
    "REPORTED": -2.17
  },
  {
    "SEQ TEXT": "ACAGAGCAAUAUUACGCGUA",
    "REPORTED PROPERTY": "self-splicing fitness (ln)",
    "REPORTED": -3.21
  },
  {
    "SEQ TEXT": "GUAAAGCAAUAUUACGGCCG",
    "REPORTED PROPERTY": "self-splicing fitness (ln)",
    "REPORTED": -0.257
  },
  {
    "SEQ TEXT": "UACUAGCAAUAUUACGAUCA",
    "REPORTED PROPERTY": "self-splicing fitness (ln)",
    "REPORTED": -1.21
  },
  {
    "SEQ TEXT": "AGCAAGCAAUAUUACGCGAA",
    "REPORTED PROPERTY": "self-splicing fitness (ln)",
    "REPORTED": -2.39
  },
  {
    "SEQ TEXT": "UAUCAGCAAUAUUACGCACU",
    "REPORTED PROPERTY": "self-splicing fitness (ln)",
    "REPORTED": -0.0365
  },
  {
    "SEQ TEXT": "CAAUAGCAAUAUUACGAUCA",
    "REPORTED PROPERTY": "self-splicing fitness (ln)",
    "REPORTED": -2.41
  },
  {
    "SEQ TEXT": "CAUAAGCAAUAUUACGCGCA",
    "REPORTED PROPERTY": "self-splicing fitness (ln)",
    "REPORTED": -1.4
  },
  {
    "SEQ TEXT": "UUGAAGCAAUAUUACGCCUG",
    "REPORTED PROPERTY": "self-splicing fitness (ln)",
    "REPORTED": 0.189
  },
  {
    "SEQ TEXT": "UUUGAGCAAUAUUACGAAAU",
    "REPORTED PROPERTY": "self-splicing fitness (ln)",
    "REPORTED": -3.72
  },
  {
    "SEQ TEXT": "UGUCAGCAAUAUUACGGGUG",
    "REPORTED PROPERTY": "self-splicing fitness (ln)",
    "REPORTED": -0.605
  },
  {
    "SEQ TEXT": "AGCCAGCAAUAUUACGCACG",
    "REPORTED PROPERTY": "self-splicing fitness (ln)",
    "REPORTED": -2.34
  },
  {
    "SEQ TEXT": "CGCAAGCAAUAUUACGGUGC",
    "REPORTED PROPERTY": "self-splicing fitness (ln)",
    "REPORTED": -4.9
  },
  {
    "SEQ TEXT": "CUUAAGCAAUAUUACGGGUA",
    "REPORTED PROPERTY": "self-splicing fitness (ln)",
    "REPORTED": -2.7
  },
  {
    "SEQ TEXT": "GAGUAGCAAUAUUACGACCC",
    "REPORTED PROPERTY": "self-splicing fitness (ln)",
    "REPORTED": 0.0573
  },
  {
    "SEQ TEXT": "UCCCAGCAAUAUUACGGGCG",
    "REPORTED PROPERTY": "self-splicing fitness (ln)",
    "REPORTED": -0.841
  },
  {
    "SEQ TEXT": "CUCAAGCAAUAUUACGUCCU",
    "REPORTED PROPERTY": "self-splicing fitness (ln)",
    "REPORTED": -4
  },
  {
    "SEQ TEXT": "CCGUAGCAAUAUUACGGUCC",
    "REPORTED PROPERTY": "self-splicing fitness (ln)",
    "REPORTED": -4.14
  },
  {
    "SEQ TEXT": "GUACAGCAAUAUUACGAGCG",
    "REPORTED PROPERTY": "self-splicing fitness (ln)",
    "REPORTED": -2.59
  },
  {
    "SEQ TEXT": "GUAGAGCAAUAUUACGAUCC",
    "REPORTED PROPERTY": "self-splicing fitness (ln)",
    "REPORTED": -1.22
  },
  {
    "SEQ TEXT": "CUCUAGCAAUAUUACGAGAA",
    "REPORTED PROPERTY": "self-splicing fitness (ln)",
    "REPORTED": -3.05
  },
  {
    "SEQ TEXT": "GCCUAGCAAUAUUACGGGCU",
    "REPORTED PROPERTY": "self-splicing fitness (ln)",
    "REPORTED": -3.65
  },
  {
    "SEQ TEXT": "UACAAGCAAUAUUACGCGCG",
    "REPORTED PROPERTY": "self-splicing fitness (ln)",
    "REPORTED": -0.759
  },
  {
    "SEQ TEXT": "CGUAAGCAAUAUUACGAGCG",
    "REPORTED PROPERTY": "self-splicing fitness (ln)",
    "REPORTED": -1.02
  },
  {
    "SEQ TEXT": "UUGAAGCAAUAUUACGGUUG",
    "REPORTED PROPERTY": "self-splicing fitness (ln)",
    "REPORTED": -0.894
  },
  {
    "SEQ TEXT": "ACCUAGCAAUAUUACGAUUU",
    "REPORTED PROPERTY": "self-splicing fitness (ln)",
    "REPORTED": -0.879
  },
  {
    "SEQ TEXT": "UCGAAGCAAUAUUACGAGAG",
    "REPORTED PROPERTY": "self-splicing fitness (ln)",
    "REPORTED": -3.06
  },
  {
    "SEQ TEXT": "CCCGAGCAAUAUUACGUAUU",
    "REPORTED PROPERTY": "self-splicing fitness (ln)",
    "REPORTED": -3.8
  },
  {
    "SEQ TEXT": "ACCGAGCAAUAUUACGUUUA",
    "REPORTED PROPERTY": "self-splicing fitness (ln)",
    "REPORTED": -3.4
  },
  {
    "SEQ TEXT": "GGCGAGCAAUAUUACGCAGU",
    "REPORTED PROPERTY": "self-splicing fitness (ln)",
    "REPORTED": -1.29
  },
  {
    "SEQ TEXT": "GCCUAGCAAUAUUACGCCAA",
    "REPORTED PROPERTY": "self-splicing fitness (ln)",
    "REPORTED": -2.38
  },
  {
    "SEQ TEXT": "GACGAGCAAUAUUACGGUCU",
    "REPORTED PROPERTY": "self-splicing fitness (ln)",
    "REPORTED": -2.33
  },
  {
    "SEQ TEXT": "CACGAGCAAUAUUACGCCGU",
    "REPORTED PROPERTY": "self-splicing fitness (ln)",
    "REPORTED": -3
  }
]

###

ASSAY SUMMARY: self-splicing fitness, log relative to wild type (ln ratio); higher = more splicing; Tetrahymena group I intron in knt gene, E. coli kanamycin selection, DiMSum; sequences stand for … in CUCUCU…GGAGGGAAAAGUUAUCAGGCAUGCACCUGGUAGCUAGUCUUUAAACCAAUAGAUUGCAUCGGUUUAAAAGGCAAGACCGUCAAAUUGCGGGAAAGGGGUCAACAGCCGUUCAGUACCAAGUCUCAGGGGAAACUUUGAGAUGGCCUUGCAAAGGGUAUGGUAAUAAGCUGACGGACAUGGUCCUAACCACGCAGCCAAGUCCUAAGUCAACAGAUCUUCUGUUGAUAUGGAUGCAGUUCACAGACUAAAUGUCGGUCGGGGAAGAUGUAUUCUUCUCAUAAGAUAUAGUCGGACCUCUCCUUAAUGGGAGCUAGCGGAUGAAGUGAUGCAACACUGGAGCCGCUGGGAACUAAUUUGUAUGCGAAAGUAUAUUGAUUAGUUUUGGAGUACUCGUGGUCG
CONDITIONS USED: 30 °C
Criterion: self-splicing fitness (ln) meeting or surpassing -3. Met: fulfilled. Not met: not fulfilled.

[
  {
    "SEQ TEXT": "GUAGAGCAAUAUUACGGGCG",
    "GROUP": "fulfilled"
  },
  {
    "SEQ TEXT": "CAUCAGCAAUAUUACGCACC",
    "GROUP": "not fulfilled"
  },
  {
    "SEQ TEXT": "AGGGAGCAAUAUUACGCCAU",
    "GROUP": "not fulfilled"
  },
  {
    "SEQ TEXT": "ACGAAGCAAUAUUACGGACU",
    "GROUP": "fulfilled"
  },
  {
    "SEQ TEXT": "ACCCAGCAAUAUUACGUGCA",
    "GROUP": "fulfilled"
  },
  {
    "SEQ TEXT": "CUUGAGCAAUAUUACGUCAU",
    "GROUP": "not fulfilled"
  },
  {
    "SEQ TEXT": "GCGGAGCAAUAUUACGUACU",
    "GROUP": "fulfilled"
  },
  {
    "SEQ TEXT": "AAUCAGCAAUAUUACGUGCC",
    "GROUP": "fulfilled"
  },
  {
    "SEQ TEXT": "GAAGAGCAAUAUUACGUUGG",
    "GROUP": "not fulfilled"
  },
  {
    "SEQ TEXT": "GGCAAGCAAUAUUACGCGAU",
    "GROUP": "fulfilled"
  },
  {
    "SEQ TEXT": "CGUAAGCAAUAUUACGGUGG",
    "GROUP": "fulfilled"
  },
  {
    "SEQ TEXT": "AAUGAGCAAUAUUACGCAGC",
    "GROUP": "not fulfilled"
  },
  {
    "SEQ TEXT": "UACCAGCAAUAUUACGCCCA",
    "GROUP": "fulfilled"
  },
  {
    "SEQ TEXT": "AAGCAGCAAUAUUACGCAGC",
    "GROUP": "fulfilled"
  },
  {
    "SEQ TEXT": "AUCAAGCAAUAUUACGUUGU",
    "GROUP": "not fulfilled"
  }
]
